Here, each record is paired with measured IC50 data.
- tgt: CT-L activity of purified 20S proteasome (Homo sapiens, UniProt P20618+P28074)
- assay.procedure: in vitro CT-L activity of purified 20S proteasome
- Format: biochemical
- assay.conditions: Table 9; read-out: IC50 (μM) Chymotrypsin-like
Numbers only; they are read as µM.

Incoming: Recorded IC50 of Cc1ccc(OCC(=O)N(C)Cc2nc(-c3ccc(C)cc3)no2)cc1 [drawing 186] , please.
Outgoing: 29.9

Incoming: What value of IC50 has been recorded for this entry: Cc1ccc(OCC(=O)N(Cc2nc(-c3ccc(C)cc3)no2)CC(C)C)cc1 [drawing 187]
Outgoing: 2.37

More entries:
Incoming: # input compound: CC(C)N(Cc1nc(-c2ccccc2)no1)C(=O)CCc1ccc(C(F)(F)F)cc1 [drawing 183] ; wanted: its IC50
Outgoing: 15.7

====

- tgt: CT-L activity of purified 20S proteasome (Homo sapiens, UniProt P20618+P28074)
- assay.procedure: in vitro CT-L activity of purified 20S proteasome
- Assay type: biochemical
- assay.conditions: Table 4; read-out: IC50 (μM) Chymotrypsin-like activity
assay.metric: IC50
Respond with the figure and its unit, in that order.

Incoming: Consider the molecule Cc1ccc(OCC(=O)N(Cc2nc(-c3ccc(C)cc3)no2)C(C)C)cc1 and give its measured IC50.
Outgoing: 0.716 µM

====

- tgt: CT-L activity of purified 20S proteasome (Homo sapiens, UniProt P20618+P28074)
- assay.procedure: in vitro CT-L activity of purified 20S proteasome
- Type: biochemical
- assay.conditions: Table 1; read-out: IC50 (μM) Chymotrypsin-like activity
Each entry below carries its reported IC50.
Unit µM implied. Number only.

The examples below pair each entry with its known result.
Incoming: Please report the recorded IC50 for Cc1ccc(OCC(=O)N(Cc2nc(-c3ccc(C(F)(F)F)cc3)no2)C(C)C)cc1 [11n] .
Outgoing: 0.97

Incoming: Please look up its IC50: Cc1ccc(-c2noc(CN(C(=O)COc3ccc(C(F)(F)F)cc3)C(C)C)n2)cc1 [11a]
Outgoing: 1.08

Incoming: Look up IC50: CCCc1ccc(OCC(=O)N(Cc2nc(-c3ncccn3)no2)C(C)C)cc1 [11ao]
Outgoing: 1.27

Incoming: May I ask what IC50 has been recorded for CCCCCc1ccc(OCC(=O)N(Cc2nc(-c3cccnc3)no2)C(C)C)cc1 [11af] ?
Outgoing: 0.121

Incoming: Consider the molecule Cc1ccc(OCC(=O)N(Cc2nc(-c3ccc(Cl)cc3)no2)C(C)C)cc1 [11i] and give its measured IC50.
Outgoing: 0.45

More entries:
Incoming: Bench note: what IC50 did CC(C)N(Cc1nc(-c2ccc(C(F)(F)F)cc2)no1)C(=O)COc1ccc(Cl)cc1 [11f] show?
Outgoing: 1.4

Incoming: If you can, please state the reported IC50 value of CC(C)c1ccc(OCC(=O)N(Cc2nc(-c3cccnc3)no2)C(C)C)cc1 [11ai] .
Outgoing: 0.436

====

- tgt: CT-L activity of purified 20S proteasome (Homo sapiens, UniProt P20618+P28074)
- assay.procedure: in vitro CT-L activity of purified 20S proteasome
- Format: biochemical
- assay.conditions: read-out: IC50, in vitro CT-L
pIC50: −log10 of the molar value.
Cut-off 7 on pIC50, inclusive. At or above means Met; below means Not met.

Incoming: Record CCCc1ccc(OCC(=O)N(Cc2nc(-c3cccnc3)no2)C(C)C)cc1 [11ad] ; criterion: pIC50 no lower than 7. Met?
Outgoing: Met

Incoming: Determine whether measured pIC50 meets or exceeds 7 for CCCc1ccc(OC(C)C(=O)N(Cc2nc(-c3cccnc3)no2)C(C)C)cc1 (racemic) [16d]
Outgoing: Not met

Incoming: Is the recorded value of pIC50 equal to or greater than 7 for this compound? Cc1ccc(CNC(=O)N(Cc2nc(-c3ccccc3)no2)C(C)C)cc1 [SO2-024]
Outgoing: Not met

Incoming: Please indicate if the recorded pIC50 for CC(C)N(Cc1nc(-c2ccccc2)no1)C(=O)COc1ccc(O)cc1 [11v] meets or exceeds 7.
Outgoing: Not met

Incoming: pIC50 >= 7 for CCCc1ccc(OCC(=O)N(Cc2nc(-c3cncnc3)no2)C(C)C)cc1 [11al] ?
Outgoing: Met

New cases:
Incoming: Is it the case that CCN(Cc1nc(-c2ccc(C)cc2)no1)C(=O)COc1ccc(C)cc1 [12b] has pIC50 reaching or exceeding 7?
Outgoing: Not met

Incoming: State whether the measured pIC50 reaches 7, counting equality as reaching it, for Cc1ccc(O[C@@H](C)C(=O)N(Cc2nc(-c3cccnc3)no2)C(C)C)cc1 [16b]
Outgoing: Not met

Incoming: Decide: pIC50 of CC(C)N(Cc1nc(-c2cccnc2)no1)C(=O)COc1ccccc1 [11ac] >= 7?
Outgoing: Not met

Incoming: Quick check, pIC50 >= 7? CCc1ccc(OCC(=O)N(Cc2nc(-c3ccccc3)no2)C(C)C)cc1 [11aa]
Outgoing: Not met

Incoming: Does the compound Cc1ccc(NCC(=O)N(Cc2nc(-c3ccccc3)no2)C(C)C)cc1 [SO2-090] have recorded pIC50 that is 7 or more?
Outgoing: Not met

Incoming: Given the entry Cc1ccc(OC(C)C(=O)N(Cc2nc(-c3cccnc3)no2)C(C)C)cc1 (racemic) [16a] , answer whether its pIC50 meets or surpasses 7.
Outgoing: Not met

====

Quick reference: inhibition at 10 µM of the listed items.
- tgt: CT-L activity of purified 20S proteasome (Homo sapiens, UniProt P20618+P28074)
- assay.procedure: in vitro CT-L activity of purified 20S proteasome
- Format: biochemical
- assay.conditions: Table 5, @ 10 μM; read-out: Screening Results (% Inhibition @ 10 μM) Chymotrypsin-like

Field: example entries. Status: answers known.
Incoming: What measured inhibition at 10 µM goes with CC(C)N(Cc1nc(-c2ccccc2)no1)C(=O)COc1ccc(O)cc1 [drawing 156] ?
Outgoing: -5.85%

Incoming: Need inhibition at 10 µM, item CC(C)N(Cc1nc(-c2ccccc2)no1)C(=O)COc1ccc(C(=O)OC(C)(C)C)cc1 [drawing 141]
Outgoing: -62%

Incoming: Find the recorded inhibition at 10 µM belonging to CC(C)N(Cc1nc(-c2ccccc2)no1)C(=O)COc1ccc2cc(Br)ccc2c1 [drawing 133] and report it.
Outgoing: < 70%

Incoming: Any idea what its inhibition at 10 µM is? The compound is CC(C)N(Cc1nc(-c2cccnc2)no1)C(=O)COc1ccc(O)cc1 [drawing 155]
Outgoing: 78.4%

New cases:
Incoming: Dear colleague, I am looking for the recorded inhibition at 10 µM of the following compound: Cc1ccc(CNC(=O)N(Cc2nc(-c3ccccc3)no2)C(C)C)cc1 [drawing 129]
Outgoing: -8.75%

Incoming: Any idea what inhibition at 10 µM was measured for Cc1ccc(OCC(=O)N(Cc2nc(-c3ccncc3)no2)C(C)C)cc1 [drawing 147] ?
Outgoing: 95.7%

Incoming: Quick one: inhibition at 10 µM of Cc1ccc(OCC(=O)N(CCc2nc(-c3ccccc3)no2)C(C)C)cc1 [drawing 144] ?
Outgoing: 31.4%

Incoming: Which inhibition at 10 µM reading was recorded for the compound Cc1cccc(OCC(=O)N(Cc2nc(-c3ccccc3)no2)C(C)C)c1 [drawing 136] ?
Outgoing: < 70%

Incoming: For Cc1ccc(OC(C)C(=O)N(Cc2nc(-c3cccnc3)no2)C(C)C)cc1 (stereo not drawn) , what is its reported inhibition at 10 µM?
Outgoing: 92.9%

====

- tgt: CT-L activity of purified 20S proteasome (Homo sapiens, UniProt P20618+P28074)
- assay.procedure: in vitro CT-L activity of purified 20S proteasome
- Type: biochemical
- assay.conditions: Table 3; read-out: IC50 (μM) CT-L
assay.metric: IC50 (µM)
State the answer as a number, implicitly in µM.

Incoming: Param item = Cc1ccc(O[C@H](C)C(=O)N(Cc2nc(-c3cccnc3)no2)C(C)C)cc1 [16c] ; retrieve measured IC50.
Outgoing: 7.52

***
Incoming: Please look up its IC50: CCCc1ccc(O[C@@H](C)C(=O)N(Cc2nc(-c3cccnc3)no2)C(C)C)cc1 (single isomer, unassigned) [16f]
Outgoing: 2.18

Incoming: Quick check: IC50 of Cc1ccc(OC(C)C(=O)N(Cc2nc(-c3cccnc3)no2)C(C)C)cc1 (racemic) [16a] ?
Outgoing: 0.38

Incoming: For the compound CCCc1ccc(O[C@@H](C)C(=O)N(Cc2nc(-c3cccnc3)no2)C(C)C)cc1 [16e] , what IC50 is on record?
Outgoing: 0.075

====

Let's look at some compounds and their measured IC50.
- tgt: CT-L activity of purified 20S proteasome (Homo sapiens, UniProt P20618+P28074)
- assay.procedure: in vitro CT-L activity of purified 20S proteasome
- Format: biochemical
- assay.conditions: Table 5; read-out: IC50 (μM) Chymotrypsin-like
Enter your answer as a number in µM; do not include the unit.

Incoming: Given the compound CC(C)N(Cc1nc(-c2ccccc2)no1)C(=O)COc1ccc(O)cc1 [drawing 156] , what is its reported IC50?
Outgoing: 10.1

Incoming: Given the entry CC(C)Cc1ccc(OCC(=O)N(Cc2nc(-c3cccnc3)no2)C(C)C)cc1 [drawing 173] , report its measured IC50.
Outgoing: 0.14

Incoming: Look up IC50 for this compound: CC(C)N(Cc1nc(-c2ccccc2)no1)C(=O)COc1ccc(F)cc1 [drawing 131]
Outgoing: 8.73

Others:
Incoming: Which IC50 value is on record for CC(C)N(Cc1nc(-c2cccnc2)no1)C(=O)COc1ccc(C2CCCCC2)cc1 [drawing 169] ?
Outgoing: 1.36

Incoming: If you can, please state the reported IC50 value of CCc1ccc(OCC(=O)N(Cc2nc(-c3ccccc3)no2)C(C)C)cc1 [drawing 134] .
Outgoing: 0.267

Incoming: Recorded IC50 of CCCCc1ccc(OCC(=O)N(Cc2nc(-c3cccnc3)no2)C(C)C)cc1 [drawing 159] , please.
Outgoing: 0.039

Incoming: Form field: reported IC50 of CCCc1ccc(OCC(=O)N(Cc2nc(-c3ncccn3)no2)C(C)C)cc1 [drawing 174]
Outgoing: 1.27

Incoming: Look at this compound and give its reported IC50. CC(C)N(Cc1nc(-c2cccnc2)no1)C(=O)COc1ccc(O)cc1 [drawing 155]
Outgoing: 0.98

Incoming: What does the data say about its IC50? Entry: Cc1ccc(-c2noc(CN(C(=O)COc3ccc(C(F)(F)F)cc3)C(C)C)n2)cc1 [drawing 118]
Outgoing: 1.08

Incoming: // IC50 lookup, key: Cc1ccc(OCC(=O)N(Cc2nc(-c3ccc(Cl)cc3)no2)C(C)C)cc1 [drawing 113]
Outgoing: 0.45
